Measured furin cleavage Z-score values are reported for all entries that follow.
- SYSTEM: furin, P09958;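 note: purified furin at 1:10 enzyme:substrate in 50 mM HEPES pH 7.5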
- Sequence (P09958 whole entry): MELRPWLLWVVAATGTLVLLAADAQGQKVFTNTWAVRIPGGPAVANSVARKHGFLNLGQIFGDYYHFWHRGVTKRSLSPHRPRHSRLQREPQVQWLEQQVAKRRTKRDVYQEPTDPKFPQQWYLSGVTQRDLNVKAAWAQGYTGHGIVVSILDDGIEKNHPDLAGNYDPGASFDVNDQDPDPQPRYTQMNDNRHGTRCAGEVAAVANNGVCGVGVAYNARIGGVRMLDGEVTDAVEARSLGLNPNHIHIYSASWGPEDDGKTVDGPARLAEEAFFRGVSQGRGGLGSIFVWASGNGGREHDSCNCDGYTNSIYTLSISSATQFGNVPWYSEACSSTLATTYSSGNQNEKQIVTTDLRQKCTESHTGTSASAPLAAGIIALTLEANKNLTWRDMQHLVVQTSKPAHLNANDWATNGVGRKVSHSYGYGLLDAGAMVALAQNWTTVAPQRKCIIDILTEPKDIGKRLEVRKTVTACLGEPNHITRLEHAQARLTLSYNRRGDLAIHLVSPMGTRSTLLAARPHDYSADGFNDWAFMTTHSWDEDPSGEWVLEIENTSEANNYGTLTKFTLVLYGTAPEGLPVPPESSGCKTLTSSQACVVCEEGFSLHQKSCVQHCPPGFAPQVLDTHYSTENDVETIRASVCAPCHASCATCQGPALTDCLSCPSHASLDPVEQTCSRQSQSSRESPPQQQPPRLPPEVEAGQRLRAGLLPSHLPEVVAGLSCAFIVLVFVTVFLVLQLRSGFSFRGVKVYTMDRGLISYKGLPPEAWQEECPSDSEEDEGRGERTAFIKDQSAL
- PROTOCOL DETAILS: furin cleavage Z-score vs untreated control; higher = more cleavage, active = 3.5 or more, inactive = 1 or less, 8 variable residues between constant flanks
- CONDITIONS: 15 min
This is one part of the list. How many sequences the whole screen found active is unknown.
REPORTED PROPERTY: furin cleavage Z-score

[[record]]
primary_sequence = "CAPISRPRRRAGNASASA [FS-1648]"
reported_property = "furin cleavage Z-score"
readout_number = 8.41

[[record]]
primary_sequence = "CAAGCAWYELAGNASASA [HC922]"
reported_property = "furin cleavage Z-score"
readout_number = -1.42

[[record]]
primary_sequence = "CALDSFDPLVAGNASASA [HC1287]"
reported_property = "furin cleavage Z-score"
readout_number = 0.184

[[record]]
primary_sequence = "CATTICSGSWAGNASASA [HC1864]"
reported_property = "furin cleavage Z-score"
readout_number = -0.615

[[record]]
primary_sequence = "CAAPGERPSGAGNASASA [HC912]"
reported_property = "furin cleavage Z-score"
readout_number = 0.136

[[record]]
primary_sequence = "CARSKRRDANAGNASASA [FS-2306]"
reported_property = "furin cleavage Z-score"
readout_number = 0.401

[[record]]
primary_sequence = "CASTEDLVNLAGNASASA [HC1098]"
reported_property = "furin cleavage Z-score"
readout_number = -0.11

